The measured values listed here are drawn from PubChem BioAssay (EPA / NIEHS).

- test details: APR_HepG2_p53Act_24hr: Apredica 24-hour HepG2 Assay for p53 Activation (AID 2282913);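 also: p53 protein immunofluorescence averaged per cell in HepG2 with Hoechst nuclei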
- condition notes: high-content imaging, actives raise or lower the signal
- Protocol: APR_HepG2_24hr is a cell-based, multiplexed-readout assay that uses HepG2, a human liver cell line, with measurements taken at 24 hours after chemical dosing in a 384-well plate.APR_HepG2_p53Act_24hr is one of 10 assay component(s) measured or calculated from the APR_HepG2_24hr assay. […] This assay endpoint, APR_HepG2_p53Act_24hr, was analyzed with bidirectional fitting relative to DMSO as the negative control and baseline of activity. […]
Activity calls are given as the source filed them. The calls were made as follows: active = hit-call score of the fitted dose curve at least 0.9, where 1 is the maximum; inactive = score below 0.9.
Hi there, use one of these labels in your reply, thanks! 1 = active, -1 = inactive

Asked: Short answer needed: outcome of this test for CC(C)(C)OOC(C)(C)C ?
Given back: -1

Asked: Request: [N-]=[N+]=[N-]
Given back: -1

Asked: Likewise for c1ccc2c(c1)Nc1ccccc1S2 ?
Given back: -1

Asked: Next: CCC1(c2ccccc2)C(=O)N=C(O)NC1=O (stereo unspecified)
Given back: -1

Asked: Similarly, Cc1cccc(N)c1 ?
Given back: -1

Asked: Queued: CCC(C)(C)c1ccc(O)cc1
Given back: 1

Asked: Input Nc1ccc(Cl)cc1
Given back: -1

Asked: Also c1ccc(OP(Oc2ccccc2)Oc2ccccc2)cc1 , if possible.
Given back: -1

Asked: Please do the same for Cc1ccc(N)cc1N as well.
Given back: -1

Asked: Try ClC(Cl)(Cl)c1ccccc1 next.
Given back: -1

Asked: Note, next up: CCOC(=O)c1ccccc1C(=O)OCC
Given back: -1

Asked: And the next one, ClC1=C(Cl)C2(Cl)C3C(Cl)C(Cl)CC3C1(Cl)C2(Cl)Cl (stereo unspecified) ?
Given back: 1

Asked: Now this one: O=P1(N(CCCl)CCCl)NCCCO1 (stereo unspecified)
Given back: -1

Asked: What do you get for O=P(Oc1ccccc1)(Oc1ccccc1)Oc1ccccc1 ?
Given back: 1

Asked: Same lookup for O=[N+]([O-])c1ccccc1 , please.
Given back: -1

Asked: Now this one: CCCN(CCC)c1c([N+](=O)[O-])cc(C(C)C)cc1[N+](=O)[O-]
Given back: 1

Asked: Next record, please: CCOS(=O)(=O)OCC
Given back: -1

Asked: Would you mind doing OCC1CO1 (stereo unspecified) as well?
Given back: -1

Asked: Item: c1nc[nH]n1
Given back: -1

Asked: Now consider CC(C)(C)c1ccc(O)cc1 .
Given back: -1

Asked: Param item: CC(Cc1ccc(OCC(=O)O)cc1)NCC(O)c1csc(C(F)(F)F)n1 (stereo unspecified)
Given back: -1

* * *

- Read-out: Interleukin-6 (IL6), IL6 (gene 3569)
- test details: BSK_CASM3C_IL6: BioMAP Diversity Plus: CASM3C Assay for Interleukin-6 (IL6) Biomarker Activity for (AID 2283040)
- condition notes: primary human coronary artery smooth muscle cells; actives raise or lower the signal
Activity calls are given as the source filed them. The calls were made as follows: active = hit-call score of the fitted dose curve at least 0.9, where 1 is the maximum; inactive = score below 0.9.
Form entry, call: pick from 1.0 (active), 0.0 (inactive)

Asked: Recorded test outcome, item FC(F)(F)C(F)(C(F)(F)F)C(F)(F)C(F)(F)CC1CO1 (stereo not drawn)
Given back: 0.0

Asked: Input N#Cc1c(-c2ccc(Cl)cc2)[nH]c(C(F)(F)F)c1Br
Given back: 1.0

Asked: Further, for c1ccc2c(c1)sc1ccccc12 ?
Given back: 0.0

Asked: Try this compound too: CC(C)Nc1ccc(Nc2ccccc2)cc1
Given back: 1.0

Asked: What would you report for O=[N+]([O-])c1ccccc1 ?
Given back: 0.0

Asked: O=C(O)C(F)(F)C(F)(F)C(=O)O ?
Given back: 0.0

Asked: Next entry: CC(C)(C)c1ccc(O)cc1
Given back: 0.0

Asked: And for c1ccc(OP(Oc2ccccc2)Oc2ccccc2)cc1 ?
Given back: 0.0

Asked: And what about the compound CCOP(=S)(OCC)SCSCC ?
Given back: 0.0

Asked: Try this compound too: O=S(=O)(F)C(F)(F)C(F)(F)C(F)(F)C(F)(F)C(F)(F)C(F)(F)C(F)(F)C(F)(F)F
Given back: 0.0

Asked: Same thing, different compound: ClC(Cl)c1ccccc1
Given back: 0.0

Asked: What do we get for CCOC(=O)c1ccccc1C(=O)OCC ?
Given back: 0.0

Asked: Item: C=CC(=O)OCC(CC)(COC(=O)C=C)COC(=O)C=C
Given back: 1.0

Asked: How about ClC1=C(Cl)C2(Cl)C3C(Cl)C(Cl)CC3C1(Cl)C2(Cl)Cl (stereo not drawn) ?
Given back: 0.0

Asked: CCOS(=O)(=O)OCC ?
Given back: 0.0

Asked: Field entry: CC(Cc1ccc(OCC(=O)O)cc1)NCC(O)c1csc(C(F)(F)F)n1 (stereo not drawn)
Given back: 0.0

Asked: Quick one: CC(C)(C)c1ccccc1OP(=O)(Oc1ccccc1)Oc1ccccc1
Given back: 0.0

Asked: Cool, now CCCCC(CC)COP(=O)(Oc1ccccc1)Oc1ccccc1 (stereo not drawn)
Given back: 0.0

Asked: Similarly, Nc1cc2c3c(c1)C(c1ccccc1)=N[C@@H](NC(=O)c1cccnc1)C(=O)N3CC2 ?
Given back: 0.0

Asked: Another: CCN(CC)c1ccccc1
Given back: 0.0

Asked: Subsequent entry: CC(Cl)CN(C)C (stereo not drawn)
Given back: 0.0

Asked: Here is the next compound: NC(=O)C(F)(F)C(F)(F)F
Given back: 0.0

Asked: Query c1cc2c3c(cccc3c1)CC2 next
Given back: 0.0

Asked: Field entry: CCCCCCCc1ccc(O)cc1
Given back: 0.0

Asked: Next record, please: O=P(Oc1ccccc1)(Oc1ccccc1)Oc1ccccc1
Given back: 0.0

Asked: Now consider CCOP(=S)(S)OCC .
Given back: 0.0

Asked: Again, but for OCC(F)(F)OC(F)(F)C(F)(F)OC(F)(F)C(F)(F)OC(F)(F)F
Given back: 0.0

Asked: Repeat with CCCCC(CC)COC(=O)c1c(Br)c(Br)c(Br)c(Br)c1C(=O)OCC(CC)CCCC (stereo not drawn)
Given back: 0.0

Asked: Next record, please: CCCCOCCOP(=O)(OCCOCCCC)OCCOCCCC
Given back: 1.0

Asked: Now the same for N#Cc1cc([N+](=O)[O-])ccc1N
Given back: 0.0

Asked: Here is the next compound: Cc1ccc(O)cc1C
Given back: 0.0

Asked: Try CCOP(=S)(NC(C)C)Oc1ccccc1C(=O)OC(C)C (stereo not drawn) next.
Given back: 0.0

Asked: CC(O)C(F)(F)C(F)(F)F (stereo not drawn) ?
Given back: 0.0

Asked: Then this compound: CCOP(=S)(OCC)SCn1nnc2ccccc2c1=O
Given back: 0.0

Asked: Follow-up item: O=C(O)C1C(C(=O)O)C2(Cl)C(Cl)=C(Cl)C1(Cl)C2(Cl)Cl (stereo not drawn)
Given back: 0.0

Asked: Consider next the compound Nc1ccc2ccccc2c1 in the same way.
Given back: 0.0

Asked: Next record, please: ClC(Cl)=C(c1ccc(Cl)cc1)c1ccccc1Cl
Given back: 0.0

Asked: Would you kindly repeat that for CCOP(=S)(OCC)SCSc1ccc(Cl)cc1 ?
Given back: 0.0

Asked: Also, c1ccc2c(c1)Nc1ccccc1S2 please.
Given back: 0.0

Asked: Repeat with O=[N+]([O-])c1ccc(Cl)c(Cl)c1
Given back: 0.0

Asked: How about CC(C)(C)OOC(C)(C)C ?
Given back: 0.0

Asked: Cool, now OCC1CO1 (stereo not drawn)
Given back: 0.0

Asked: Let us now turn to CSC(C)(C)C=NO
Given back: 0.0

Asked: Next compound: OCC(F)(F)OC(F)(F)C(F)(F)OC(F)(F)CO
Given back: 0.0

Asked: Same question for O=P(OCC(Br)CBr)(OCC(Br)CBr)OCC(Br)CBr (stereo not drawn) please.
Given back: 0.0

Asked: Further, for Cc1ccc([N+](=O)[O-])cc1C ?
Given back: 0.0

Asked: Consider next the compound [N-]=[N+]=[N-] in the same way.
Given back: 0.0

Asked: Next compound up: CCNc1nc(Cl)nc(NC(C)(C)C)n1
Given back: 0.0

* * *

- target or system: Nuclear respiratory factor 1 (Homo sapiens)
- test details: ATG_NRF1_CIS: Attagene CIS-FACTORIAL HepG2 Assay for human Nuclear Respiratory Factor 1 (NRF1) Orphan Gene (AID 2282987)
- condition notes: HepG2 NRF1 cis-element reporter, Attagene multiplex; actives raise or lower the signal
The source made the active and inactive calls. The calls were made as follows: active = hit-call score of the fitted dose curve at least 0.9, where 1 is the maximum; inactive = score below 0.9.
Lab note: assign the record to one of active, inactive

Asked: Could you kindly confirm the outcome this assay logged for NC(=O)C(F)(F)C(F)(F)F ?
Given back: inactive

Asked: Would you mind doing CCCN(CCC)c1c([N+](=O)[O-])cc(C(C)C)cc1[N+](=O)[O-] as well?
Given back: inactive

Asked: Same question for CC(C)(C)OOC(C)(C)C please.
Given back: inactive

Asked: Input CCOP(=S)(OCC)SCn1nnc2ccccc2c1=O
Given back: active

Asked: And CCOC(=O)c1ccccc1C(=O)OCC ?
Given back: inactive

Asked: Note, next up: C=CC(=O)OCC(CC)(COC(=O)C=C)COC(=O)C=C
Given back: inactive

Asked: // same read-out, input: O=C(O)C(F)(F)C(F)(F)C(=O)O
Given back: inactive

Asked: Thanks! And O=C(O)C1C(C(=O)O)C2(Cl)C(Cl)=C(Cl)C1(Cl)C2(Cl)Cl (stereo not drawn) ?
Given back: inactive

Asked: Note, next up: COCCOCCO
Given back: inactive

Asked: Check CCCCN(CCCC)N=O too.
Given back: inactive

Asked: Can you handle Nc1ccc(Cl)cc1 next?
Given back: inactive

Asked: Param item: CC(C)(C)c1ccccc1OP(=O)(Oc1ccccc1)Oc1ccccc1
Given back: inactive

Asked: Another molecule to look at: CC(O)C#N (stereo not drawn)
Given back: inactive

Asked: Then this molecule: O=S(=O)(c1ccc(O)cc1)c1ccc(O)cc1
Given back: inactive

Asked: Same read-out for Cc1ccc(C(=O)Cl)cc1 ?
Given back: inactive

Asked: Would you kindly repeat that for Cc1ccc2c(c1N)C(=O)c1ccccc1C2=O ?
Given back: inactive

Asked: Now give it for Nc1ccc([N+](=O)[O-])cc1Cl too.
Given back: inactive

Asked: Item: CCOP(=S)(S)OCC
Given back: inactive

Asked: // same read-out, input: COC(N)=O
Given back: inactive

Asked: Another molecule to check: Cc1cccc(N)c1
Given back: inactive

Asked: Please give the result for CCNc1nc(Cl)nc(NC(C)(C)C)n1 too.
Given back: inactive

Asked: Also need Nc1ccc(Sc2ccc(N)cc2)cc1 , thanks.
Given back: inactive

Asked: Repeat for the following molecule: CCOS(=O)(=O)OCC
Given back: inactive

Asked: Input FC(F)(F)c1ccc(Cl)cc1
Given back: inactive

Asked: Try the molecule CCC(C)(C)c1ccc(O)cc1
Given back: inactive

Asked: Same again, this time with COP(N)(=S)OC
Given back: inactive

Asked: Subsequent entry: CCCCN(CCCC)SN(C)C(=O)Oc1cccc2c1OC(C)(C)C2
Given back: inactive

Asked: Also CC1=C(C(=O)Nc2ccccc2)S(=O)(=O)CCO1 , if possible.
Given back: inactive

Asked: Also, C=C(C)C(=O)OCC1CO1 (stereo not drawn) please.
Given back: inactive

Asked: Also need OCC(F)(F)OC(F)(F)C(F)(F)OC(F)(F)C(F)(F)OC(F)(F)F , thanks.
Given back: inactive

Asked: Repeat with CCCCN(CC)C(=O)SCCC
Given back: inactive

Asked: Continue with O=S(=O)(F)C(F)(F)C(F)(F)C(F)(F)C(F)(F)C(F)(F)C(F)(F)C(F)(F)C(F)(F)F
Given back: inactive

Asked: Repeat with CCN(CC)c1ccccc1
Given back: inactive

Asked: // query: N#Cc1ccc(O)cc1
Given back: inactive

Asked: Here is the next molecule: Oc1ccc(I)cc1
Given back: inactive

Asked: // repeat for O=P(Oc1ccccc1)(Oc1ccccc1)Oc1ccccc1 and report
Given back: inactive

Asked: Cool, now O=C(O)C=CC(F)(C(F)(F)F)C(F)(F)F
Given back: inactive

Asked: What about COC(=O)C(F)(F)C(F)(F)OC(F)(C(F)(F)F)C(F)(F)OC(F)=C(F)F (stereo not drawn) ?
Given back: inactive

Asked: Also check O=P1(N(CCCl)CCCl)NCCCO1 (stereo not drawn)
Given back: inactive

Asked: OCC(F)(F)OC(F)(F)C(F)(F)OC(F)(F)C(F)(F)OC(F)(F)CO , same question.
Given back: inactive

Asked: // same read-out, input: ClC(Cl)=C(c1ccc(Cl)cc1)c1ccccc1Cl
Given back: inactive

Asked: Similarly, O=NN1CCCC1 ?
Given back: inactive

Asked: Input CC(Cl)CN(C)C (stereo not drawn)
Given back: inactive
